Biological target: GST-Co-NF-kB (Capsaspora owczarzaki, UniProt F1ARL5 200-546)
Sequence: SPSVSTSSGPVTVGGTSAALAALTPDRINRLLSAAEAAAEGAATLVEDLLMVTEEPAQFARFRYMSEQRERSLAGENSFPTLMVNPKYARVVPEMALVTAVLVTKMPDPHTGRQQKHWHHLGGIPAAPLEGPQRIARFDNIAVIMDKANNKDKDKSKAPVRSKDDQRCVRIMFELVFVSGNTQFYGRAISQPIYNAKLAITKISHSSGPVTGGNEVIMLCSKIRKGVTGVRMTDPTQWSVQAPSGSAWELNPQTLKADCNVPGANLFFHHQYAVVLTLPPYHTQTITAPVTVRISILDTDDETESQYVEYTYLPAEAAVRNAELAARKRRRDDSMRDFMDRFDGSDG
Assay: protein-binding microarray (PBM); PBM: ~300 nM protein, 6 mM HEPES pH 7.8, 80 mM KCl, 0.5 mM EDTA, 0.5 mM EGTA, 6% glycerol, 35 ng/ul poly-dIdC, 1% milk, 1 h, room temperature; Ap Aiptasia and Nv Nematostella (sea anemones) / Co Capsaspora / Aq Amphimedon (sponge) / Dm Drosophila / Hu human; RHD is the Rel homology domain; high values mean tight binding
Settings: dsDNA, one strand shown
Threshold 4 z-score: binding signal strictly smaller gives 1, otherwise -1.

Some solved entries appear below for comparison.
CCGATTAACATCAGGAAATACCCTGATGTTAATCGGGTCTTGATTCGCTTGACGCTGCTG | 1
CCGATTAACATCACGGAATACCCTGATGTTAATCGGGTCTTGATTCGCTTGACGCTGCTG | 1
CCGATTAACATCAGGGGGGTGTATGATGTTAATCGGGTCTTGATTCGCTTGACGCTGCTG | -1
CCGATTAACATCAGGGAATTCTATGATGTTAATCGGGTCTTGATTCGCTTGACGCTGCTG | 1

# evaluate next
Problem: For the sequence CCGATTAACATCAGGGGGTGATATGATGTTAATCGGGTCTTGATTCGCTTGACGCTGCTG , is binding signal under 4 z-score?
-1

Where these numbers come from: paper PMC5700166
